Values from ChEMBL document CHEMBL4689842

Measured Total Cell Count, listed per entry.
# System: HEK-293T
# ASSAY INFO: Multiplex assay against HEK293T
# Type: toxicity, cell-based
# CONDITION: human, 24 h, 10 µM, compound concentration 10 uM, replicate 2
Answer field: number only, no words.

Examples with their reported Total Cell Count follow.
CNC(=O)Nc1ccc2c(c1)[C@@]1(CC2)OC(=O)N(CC(=O)N(Cc2ccc(F)cc2)[C@@H](C)C(F)(F)F)C1=O [A-486] = 3041
O=c1[nH]c2ccccc2n1C1CCN(Cc2ccc(-c3[nH]c4cc5ncnc5cc4nc3-c3ccccc3)cc2)CC1 = 883
Cc1nc(N2CC[C@H](O)C2)ncc1-c1cc(C(F)(F)F)cc2[nH]ncc12 = 2845
CCc1ccc(OCc2ccccc2C(=O)Nc2ccc3nc(C)cc(N)c3c2)cc1.Cl = 103

[ask] Form field: reported Total Cell Count of Cc1cccc(CN2CCN(C(c3ccccc3)c3ccc(Cl)cc3)CC2)c1.Cl.Cl (stereo not drawn)
[reply] 246

[ask] Form field: reported Total Cell Count of CC(C)c1noc(N2CCC(COc3ccc(-c4ccc(S(C)(=O)=O)cc4)nc3)CC2)n1 [GSK-1292263]
[reply] 139

[ask] Form field: reported Total Cell Count of CC(C)Oc1ccccc1C(=O)Nc1ccccc1C(=O)Nc1cccc(S(=O)(=O)C(F)(F)F)c1
[reply] 217

[ask] Form field: reported Total Cell Count of COC(=O)C1=C(C)NC(C)=C(C(=O)OCCCN2CCC(c3ccccc3)(c3ccccc3)CC2)[C@H]1c1cccc([N+](=O)[O-])c1 [NIGULDIPINE]
[reply] 202

====

Measured Total Cell Count, listed per entry.
# Test system: Fibroblast
# ASSAY INFO: Multiplex assay against human fibroblast
# Format: toxicity, cell-based
# CONDITION: 48 h, 1 µM, compound concentration 1 uM, replicate 1
Answer field: number only, no words.

Examples with their reported Total Cell Count follow.
O=c1cc(N2CCOCC2)oc2c(-c3cccc4c3sc3ccccc34)cccc12 = 167
Cc1ccc(C)c(Oc2ccncc2C(=O)N2CCN(C3CC3)c3ccccc32)c1 = 87
Cc1ccc2c(c1)c1c(n2CCc2ccc(C)nc2)CCN(C)C1 [LATREPIRDINE] = 140
Cl.O=C(O)c1cc(-c2ccc(C3CCNCC3)cc2)c2ccc(-c3ccc(C(F)(F)F)cc3)cc2c1 = 78
CN1CCN(Cc2ccc(Nc3ncc(Cl)c(Nc4ccccc4S(=O)(=O)N(C)C)n3)cc2)CC1 = 129

[ask] Form field: reported Total Cell Count of COC(=O)C1=C(C)NC(C)=C(C(=O)OCCCN2CCC(c3ccccc3)(c3ccccc3)CC2)[C@H]1c1cccc([N+](=O)[O-])c1
[reply] 143

[ask] Form field: reported Total Cell Count of Cc1c[nH]c2nccc(Oc3c(F)cc(Nc4cc(Cl)nc(N)n4)cc3F)c12
[reply] 170

====

# Tested on: Fibroblast
# ASSAY INFO: Multiplex assay against human fibroblast
# Type: toxicity, cell-based
# CONDITION: 24 h, 1 µM, compound concentration 1 uM, replicate 2
MEASURED METRIC: Population Membrane Permeable-Phenotype (%)
Give me the value, and tack the unit on after it.

Examples with their reported Population Membrane Permeable-Phenotype (%) follow.
COc1cc2ncn(-c3cc(OCc4ccccc4C(F)(F)F)c(C(N)=O)s3)c2cc1OC [GW843682X] = 10%
CN1CCN(Cc2ccc(Nc3ncc(Cl)c(Nc4ccccc4S(=O)(=O)N(C)C)n3)cc2)CC1 [DUBERMATINIB] = 4%
CNC(=O)Nc1ccc(-c2nc(N3CC4CCC(C3)O4)c3cnn(C4CCC5(CC4)OCCO5)c3n2)cc1 = 8%
C=CC(=O)Nc1ccc2[nH]c(=O)n(C3CCN(Cc4ccc(-c5nc6cc[nH]c(=O)c6cc5-c5ccccc5)cc4)CC3)c2c1 [Borussertib] = 5%
C=CC(=O)Nc1cccc(Oc2nc(Nc3ccc(N4CCN(C)CC4)cc3OC)ncc2Cl)c1 = 7%

[ask] Form field: reported Population Membrane Permeable-Phenotype (%) of CC(C)NC(=O)N1CC[C@H](NC2=Nc3cc(F)ccc3N(CC(F)F)c3ccc(Cl)cc32)C1
[reply] 6%

[ask] Form field: reported Population Membrane Permeable-Phenotype (%) of CCOC(=O)Nc1cc(-c2ccc(C)c(NS(C)(=O)=O)c2)nn2c(C)nnc12
[reply] 26%

[ask] Form field: reported Population Membrane Permeable-Phenotype (%) of CC(C)CC(=O)Nc1[nH]nc2c1CN(C(=O)C1CCN(C)CC1)C2(C)C [PHA-793887]
[reply] 16%

[ask] Form field: reported Population Membrane Permeable-Phenotype (%) of COc1ccc(-c2ccc3ncc4c(c3c2)n(-c2ccc(N3CCNCC3)c(C(F)(F)F)c2)c(=O)n4C)cn1.O=C(O)/C=C\C(=O)O [BGT-226]
[reply] 66%

[ask] Form field: reported Population Membrane Permeable-Phenotype (%) of COc1cc(Nc2nccc(-c3cnn4nc(OC)ccc34)n2)cc(C(F)(F)F)c1
[reply] 4%

[ask] Form field: reported Population Membrane Permeable-Phenotype (%) of CC(C)(C)NC[C@H](O)COc1nsnc1N1CCOCC1 [TIMOLOL]
[reply] 2%

[ask] Form field: reported Population Membrane Permeable-Phenotype (%) of O=c1[nH]c2ccccc2n1C1CCN(Cc2ccc(-c3[nH]c4cc5ncnc5cc4nc3-c3ccccc3)cc2)CC1
[reply] 0%

[ask] Form field: reported Population Membrane Permeable-Phenotype (%) of O=C(c1cc2c(cc1F)OC(c1ccc(F)cc1)(c1ccc(Cl)cc1Cl)O2)N1CCOCC1 (configuration not stated)
[reply] 10%

[ask] Form field: reported Population Membrane Permeable-Phenotype (%) of CC1=C(C(=O)Nc2cc3cn[nH]c3cc2F)C(c2ccc(C(F)(F)F)cc2)CC(=O)N1 (configuration not stated)
[reply] 10%

[ask] Form field: reported Population Membrane Permeable-Phenotype (%) of COC(=O)C1=C(C)NC(C)=C(C(=O)OCCCN2CCC(c3ccccc3)(c3ccccc3)CC2)[C@H]1c1cccc([N+](=O)[O-])c1 [NIGULDIPINE]
[reply] 96%

[ask] Form field: reported Population Membrane Permeable-Phenotype (%) of O=c1cc(N2CCOCC2)oc2c(-c3cccc4c3sc3ccccc34)cccc12
[reply] 9%

[ask] Form field: reported Population Membrane Permeable-Phenotype (%) of COc1ccccc1CN[C@H]1C2CCN(CC2)[C@H]1C(c1ccccc1)c1ccccc1 [CP-96345]
[reply] 1%

====

# System: Fibroblast
# ASSAY INFO: Multiplex assay against human fibroblast
# Format: toxicity, cell-based
# CONDITION: 12 h, 1 µM, compound concentration 1 uM, replicate 1
MEASURED METRIC: Population Healthy Nuclei (%)
Reply numerically in %, unit not repeated.

Examples with their reported Population Healthy Nuclei (%) follow.
CC(C)c1noc(N2CCC(COc3ccc(-c4ccc(S(C)(=O)=O)cc4)nc3)CC2)n1 = 45
Cc1nc(N2CC[C@H](O)C2)ncc1-c1cc(C(F)(F)F)cc2[nH]ncc12 = 49

Read the next record carefully.
[ask] Form field: reported Population Healthy Nuclei (%) of COc1cc(Nc2nccc(-c3cnn4nc(OC)ccc34)n2)cc(C(F)(F)F)c1
[reply] 47

====

# System: Fibroblast
# ASSAY INFO: Multiplex assay against human fibroblast
# Format: toxicity, cell-based
# CONDITION: 24 h, 10 µM, compound concentration 10 uM, replicate 2
MEASURED METRIC: Population Normal (%)
Reply numerically in %, unit not repeated.

CNC(=O)Nc1ccc2c(c1)[C@@]1(CC2)OC(=O)N(CC(=O)N(Cc2ccc(F)cc2)[C@@H](C)C(F)(F)F)C1=O = 61
COc1cc2ncn(-c3cc(OCc4ccccc4C(F)(F)F)c(C(N)=O)s3)c2cc1OC [GW843682X] = 90
Cc1nc(N2CC[C@H](O)C2)ncc1-c1cc(C(F)(F)F)cc2[nH]ncc12 = 75

Read the next record carefully.
[ask] Form field: reported Population Normal (%) of C=CC(=O)Nc1cccc(Oc2nc(Nc3ccc(N4CCN(C)CC4)cc3OC)ncc2Cl)c1
[reply] 70

====

# Tested on: U2OS
# ASSAY INFO: Incucyte cell viability with U2OS; further: filed as whole numbers so only -1 and 0 and 1 occur
# Type: toxicity, cell-based
# CONDITION: human, 24 h, 10 µM, compound concentration 10 uM, replicate number 2, timepoint 24 hours
MEASURED METRIC: Growth Rate
Answer field: number only, no words.

CCNC(=O)c1cc2c(N3CCOC[C@@H]3C)ccnc2n1C = 1

[ask] Form field: reported Growth Rate of COc1cc2ncnc(Nc3ccc(F)c(Cl)c3)c2cc1OCCCN1CCOCC1
[reply] 1

[ask] Form field: reported Growth Rate of COc1ccc(S(=O)(=O)c2cc(OC)ccc2S(=O)(=O)c2ccc([C@H](C)NS(C)(=O)=O)cc2)cc1
[reply] 0

[ask] Form field: reported Growth Rate of C#Cc1cccc(Nc2ncnc3cc(OCCOC)c(OCCOC)cc23)c1
[reply] 0

[ask] Form field: reported Growth Rate of Cc1noc([C@H]2C[C@@H](c3ccc(C(F)(F)F)cc3)CN(C(=O)N3CCS(=O)(=O)C3)C2)n1
[reply] 1

[ask] Form field: reported Growth Rate of CCCOc1ccc([C@H]2[C@H](C(=O)O)[C@@H](c3ccc4c(c3)OCO4)CN2CC(=O)Nc2c(CC)cccc2CC)cc1
[reply] 1

[ask] Form field: reported Growth Rate of Cc1cc(C(C)(C)C)c(O)c(C)c1CC1=NCCN1.Cl [OXYMETAZOLINE HYDROCHLORIDE]
[reply] 1

[ask] Form field: reported Growth Rate of CN(C)C(=O)Cn1cc(-c2nc([C@@](C)(c3ccc(-c4cnc(N)nc4)cc3)C3CC3)no2)cn1
[reply] 0
